Assay: Rodent pharmacokinetics (rat PK)
Assay type: in vivo
Conditions: po, dosed intravenously or orally by gavage, plasma, read-out: F % (bioavailability)
Description: All studies related to handling, care, and treatment of rats in the study were performed according to the guidelines approved by the Institutional Animal Care and Use Committee (IACUC). All rats had access to food and water ad libitum. Rats were dosed intravenously or orally by gavage. Whole blood was collected from the jugular vein immediately prior to dosing and at 5 (intravenously administered drugs only), 15, and 30 min and 1, 2, 4, 8, and 24 h after drug administration. […]
metric: bioavailability

Below are worked cases with known answers.
• COc1cc2nn([C@H]3CC[C@H](CN4CC[C@@H](c5cccc6c5n(C)c(=O)n6C5CCC(=O)NC5=O)[C@H](F)C4)CC3)cc2cc1NC(=O)c1cncc(C(F)F)c1 (stereo partly drawn) [I-271] = ≤ 5%
• Cn1c(=O)n([C@H]2CCC(=O)NC2=O)c2cccc([C@@H]3CCN(C[C@H]4CC[C@H](n5cc6cc(NC(=O)c7cncc(C(F)(F)F)n7)ccc6n5)CC4)C[C@H]3F)c21 (single isomer, unassigned) [I-209] = ≤ 5%

--- query ---
Give the reported bioavailability for this compound. COc1ccc2c(c1[C@@H]1CCN(C[C@H]3CC[C@H](n4cc5cc(NC(=O)c6cncc(C(F)(F)F)n6)ccc5n4)CC3)C[C@H]1F)n(C)c(=O)n2C1CCC(=O)NC1=O (stereo partly drawn) [I-347]
≥ 5%

----------
Listing of recorded bioavailability by entry.
assay: Rodent pharmacokinetics (rat PK); format: in vivo; settings: po, dosed intravenously or orally by gavage, plasma, read-out: F % (bioavailability)

Below are worked cases with known answers.
- CN(C[C@H]1CC[C@H](c2nc3cc(C(C)(C)O)c(NC(=O)c4cccc(C(F)(F)F)c4)cc3s2)CC1)[C@@H]1CCN(c2cccc3c2n(C)c(=O)n3C2CCC(=O)NC2=O)C[C@@H]1F (single isomer, unassigned): ≥ 5%
- COc1cc2nc([C@H]3CC[C@H](CN4CC[C@H](c5cccc6c5n(C)c(=O)n6C5CCC(=O)NC5=O)C(F)(F)C4)CC3)sc2cc1NC(=O)c1cncc(C#N)c1 (single isomer, unassigned): ≤ 5%

Give the reported bioavailability for this molecule. Cc1cncc(C(=O)Nc2cc3cn([C@H]4CC[C@H](CN5CC[C@@H](c6cccc7c6n(C)c(=O)n7C6CCC(=O)NC6=O)[C@H](F)C5)CC4)nc3cn2)n1 (stereo partly shown)
≤ 5%

----------
biological target: IRAK4 (Homo sapiens); construct: endogenous in cells; host or cells: OCI-LY10; assay: IRAK4 MSD degradation in OCI-LY10; type: cell-based; details: OCI-LY10 cells, 24 hrs, Meso Scale Discovery
metric: DC50

• COc1cc2nc([C@H]3CC[C@H](CN(C)[C@@H]4CCN(c5cccc6c5n(C)c(=O)n6C5CCC(=O)NC5=O)C[C@@H]4F)CC3)cn2cc1NC(=O)c1cncc(C(F)(F)F)n1 (single isomer, unassigned) = < 10 nM
• Cn1c(=O)n(C2CCC(=O)NC2=O)c2cccc(N3CC4(CCN(C[C@H]5CC[C@H](c6nc7cc(C(C)(C)O)c(NC(=O)c8cccc(C(F)(F)F)n8)cc7o6)CC5)CC4(F)F)C3)c21 (some centres unmarked) = > 200 nM
• COc1cc2nn([C@H]3CC[C@H](CN4CCN(c5cccc6c5c(C)nn6C5CCC(=O)NC5=O)CC4)CC3)cc2cc1NC(=O)c1cncc(C)c1 (some centres unmarked) = 10 to 100 nM
• Cn1c(=O)n([C@H]2CCC(=O)NC2=O)c2cccc([C@@H]3CCN(C[C@H]4CC[C@H](n5cc6cc(NC(=O)c7cncc(C(F)(F)F)n7)ccc6n5)CC4)CC3(F)F)c21 (single isomer, unassigned) = < 10 nM

--- query ---
State DC50 (IRAK4 (Homo sapiens)) of Cc1nn(C2CCC(=O)NC2=O)c2cccc([C@@H]3CCN(C[C@H]4CC[C@H](n5cc6cc(NC(=O)c7cncc(C(F)(F)F)n7)ccc6n5)CC4)CC3(F)F)c12 (single isomer, unassigned) .
10 to 100 nM

----------
target: IRAK4 (Homo sapiens, UniProt Q9NWZ3); construct: endogenous in cells; host or cells: OCI-LY10; assay: IRAK4 MSD degradation in OCI-LY10; format: cell-based; settings: OCI-LY10 cells, 24 hrs, Meso Scale Discovery
Sequence (Q9NWZ3 whole entry): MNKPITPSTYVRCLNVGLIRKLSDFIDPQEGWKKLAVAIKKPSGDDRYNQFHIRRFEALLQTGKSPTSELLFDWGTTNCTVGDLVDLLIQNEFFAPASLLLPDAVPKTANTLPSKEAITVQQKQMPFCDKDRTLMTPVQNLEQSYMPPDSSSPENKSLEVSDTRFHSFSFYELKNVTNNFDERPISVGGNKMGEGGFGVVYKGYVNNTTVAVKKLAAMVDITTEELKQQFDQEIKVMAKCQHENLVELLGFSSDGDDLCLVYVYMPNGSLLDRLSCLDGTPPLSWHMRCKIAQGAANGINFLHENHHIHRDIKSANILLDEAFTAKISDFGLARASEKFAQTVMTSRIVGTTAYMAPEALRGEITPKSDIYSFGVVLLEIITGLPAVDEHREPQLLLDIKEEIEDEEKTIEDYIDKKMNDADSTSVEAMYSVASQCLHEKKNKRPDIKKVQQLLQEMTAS
metric: DC50

Give the reported DC50 for this compound. Cn1c(=O)n(C2CCC(=O)NC2=O)c2cccc([C@@H]3CCN(C[C@H]4CC[C@H](n5cc6cc(NC(=O)c7cncc(OC(F)F)n7)ncc6n5)CC4)C[C@H]3F)c21 (some centres unmarked)
< 10 nM

Give the reported DC50 for this compound. Cc1cc2nn([C@H]3CC[C@H](CN4CC[C@@H](c5cccc6c5n(C)c(=O)n6C5CCC(=O)NC5=O)[C@H](F)C4)CC3)cc2cc1NC(=O)c1cncc(C#N)c1 (some centres unmarked)
> 200 nM

Give the reported DC50 for this compound. O=C1CCC(n2c(=O)oc3c([C@@H]4CCN(C[C@H]5CC[C@H](n6cc7cc(NC(=O)c8cncc(C(F)(F)F)n8)ccc7n6)CC5)C[C@H]4F)cccc32)C(=O)N1 (single isomer, unassigned)
< 10 nM

Give the reported DC50 for this compound. Cn1c(=O)n(C2CCC(=O)NC2=O)c2cccc([C@H]3CCN(C[C@H]4CC[C@H](n5cc6cc(NC(=O)c7cccc(C(F)(F)F)n7)ccc6n5)CC4)C[C@@H]3F)c21 (single isomer, unassigned)
< 10 nM

Give the reported DC50 for this compound. Cn1c(=O)n(C2CCC(=O)NC2=O)c2cccc(N3CC(OC[C@H]4CC[C@H](n5cc(NC(=O)c6cnn7ccc(N8C[C@H]9C[C@@H]8CO9)nc67)c(C(F)F)n5)CC4)C3)c21 (some centres unmarked)
> 200 nM

----------
Listing of recorded DC50 by entry.
target: IRAK4 (Homo sapiens, UniProt Q9NWZ3); construct: endogenous in cells; host or cells: OCI-LY10; assay: IRAK4 MSD degradation in OCI-LY10; format: cell-based; conditions: OCI-LY10 cells, 24 hrs, Meso Scale Discovery

* CN(C[C@H]1CC[C@H](n2cc3cc(NC(=O)c4cccc(C(F)(F)F)n4)ccc3n2)CC1)[C@H]1CCN(c2cccc3c2n(C)c(=O)n3C2CCC(=O)NC2=O)C[C@@H]1F (some centres unmarked) | 10 to 100 nM
* Cn1c(=O)n(C2CCC(=O)NC2=O)c2cccc([C@H]3CCN(C[C@H]4CC[C@H](c5nc6cc(C(C)(C)O)c(NC(=O)c7cccc(C(F)(F)F)n7)cc6s5)CC4)C[C@@H]3F)c21 (some centres unmarked) | < 10 nM
* Cn1c(=O)n(C2CCC(=O)NC2=O)c2cccc([C@@H]3CCN(C[C@H]4CC[C@H](n5cc6cc(NC(=O)c7cc(C(F)(F)F)ccn7)ccc6n5)CC4)C[C@H]3F)c21 (some centres unmarked) | > 200 nM

Give the reported DC50 for this compound. CN(C[C@H]1CC[C@H](n2cc(NC(=O)c3cnn4cccnc34)c(C(F)F)n2)CC1)[C@@H]1CCN(c2cccc3c2n(C)c(=O)n3C2CCC(=O)NC2=O)C[C@@H]1F (single isomer, unassigned)
< 10 nM

Give the reported DC50 for this compound. Cn1c(=O)n(C2CCC(=O)NC2=O)c2cccc([C@@H]3CCN(C[C@H]4CC[C@H](c5cn6cc(NC(=O)c7cncc(C(F)(F)F)n7)ccc6n5)CC4)C[C@H]3F)c21 (some centres unmarked)
< 10 nM

----------
biological target: IRAK4 (Homo sapiens, UniProt Q9NWZ3); construct: endogenous in cells; host or cells: OCI-LY10; test: IRAK4 MSD degradation in OCI-LY10; type: cell-based; conditions: OCI-LY10 cells, 24 hrs, Meso Scale Discovery
metric: DC50

Below are worked cases with known answers.
* CN(C[C@H]1CC[C@H](c2cn3cc(NC(=O)c4cncc(C(F)(F)F)n4)c(C(C)(C)O)cc3n2)CC1)[C@@H]1CCN(c2cccc3c2n(C)c(=O)n3C2CCC(=O)NC2=O)C[C@H]1F (single isomer, unassigned) [I-334] | < 10 nM
* CN(C[C@H]1CC[C@H](n2cc(NC(=O)c3cnn4cccnc34)c(C(F)F)n2)CC1)[C@H]1CCN(c2cccc3c2n(C)c(=O)n3C2CCC(=O)NC2=O)C[C@@H]1F (single isomer, unassigned) [I-280] | < 10 nM

Give the reported DC50 for this molecule. O=C1CCC(Nc2cccc(N3CC(CO[C@H]4CCN(C[C@H]5CC[C@H](n6cc(NC(=O)c7cnn8ccc(N9C[C@H]%10C[C@@H]9CO%10)nc78)c(C(F)F)n6)CC5)C[C@@H]4F)C3)c2)C(=O)N1 (stereo partly drawn) [I-1]
100 to 200 nM

----------
target: IRAK4 (Homo sapiens, UniProt Q9NWZ3); construct: endogenous in cells; host or cells: OCI-LY10; experiment: IRAK4 MSD degradation in OCI-LY10; format: cell-based; conditions: OCI-LY10 cells, 24 hrs, Meso Scale Discovery
metric: DC50

Below are worked cases with known answers.
- CN(C[C@H]1C[C@H](n2cc(NC(=O)c3cnn4ccc(N5C[C@H]6C[C@@H]5CO6)nc34)c(C(F)F)n2)C1)[C@H]1CCN(c2cccc3c2n(C)c(=O)n3C2CCC(=O)NC2=O)C[C@H]1F (single isomer, unassigned): < 0.01 µM
- CN(C[C@H]1CC[C@H](n2cc3cc(NC(=O)c4cccc(C(F)(F)F)n4)c(C(C)(C)O)cc3n2)CC1)[C@H]1CCN(c2cccc3c2n(C)c(=O)n3C2CCC(=O)NC2=O)C[C@H]1F (some centres unmarked): < 0.01 µM
- Cn1nc(C2CCC(=O)NC2=O)c2cccc([C@@H]3CCN(C[C@H]4CC[C@H](n5cc6cc(NC(=O)c7cncc(C#N)c7)c(C(C)(C)O)cc6n5)CC4)C[C@H]3F)c21 (single isomer, unassigned): < 0.01 µM
- Cn1c(=O)n(C2CCC(=O)NC2=O)c2cccc([C@@H]3CCN(C[C@H]4CC[C@H](n5cc6cc(NC(=O)c7cncc(C(F)(F)F)n7)cc(F)c6n5)CC4)C[C@H]3F)c21 (some centres unmarked): < 0.01 µM

--- query ---
Give the reported DC50 for this molecule. C[C@H]1CN(c2ccn3ncc(C(=O)Nc4cn([C@H]5CC[C@H](CN(C)[C@H]6CCN(c7cccc8c7n(C)c(=O)n8C7CCC(=O)NC7=O)C[C@H]6F)CC5)nc4C(F)F)c3n2)CCO1 (some centres unmarked) [I-51]
< 0.01 µM
